Recorded values, source PubChem BioAssay (Tox21).

- testMethodNotes: qHTS assay for small molecules that induce genotoxicity in human embryonic kidney cells expressing luciferase-tagged ATAD5 - cell viability (AID 651634); also: % is scaled to controls: 0 for no effect and ±100 for the full control effect; nearly all actives have a fitted effect of over 25% in size
- conditionContext: HEK293T ATAD5-luc cells viability, CellTiter-Fluor, 15.5 h; series mostly up to 83.3 µM
Results filed as inconclusive are left out. The source made the active and inactive calls. Calls follow the shape of the full dose curve.
quantityName: outcome

Previously resolved entries follow.
Prompt: Need outcome of CCN(CC)CCOC(=O)C(c1ccccc1)c1ccccc1 , thanks.
Response: inactive

Prompt: Cool, now CCCCCCCCCCCCCOC(=O)CCSCCC(=O)OCCCCCCCCCCCCC
Response: inactive

Prompt: Request: C=C(C)C(=O)OCCC(F)(F)C(F)(F)C(F)(F)C(F)(F)C(F)(F)C(F)(F)F
Response: inactive

Prompt: Similarly, O=C(O)CO ?
Response: inactive

More entries:
Prompt: Return reported outcome; argument: CNCc1ccc(NC(=O)c2c[nH]c3c2C(=O)CCC3)cc1
Response: inactive

Prompt: Next compound: CC(C)(C(=O)c1cccnc1)c1cccnc1
Response: inactive

Prompt: Continue with C[C@H](CS)C(=O)N1CCC[C@H]1C(=O)O
Response: inactive

Prompt: Also NC(=O)c1ccccc1[N+](=O)[O-] ?
Response: inactive

====

- testMethodNotes: qHTS RealTime-Glo MT Cell Viability Assay in HEK293 cells - 32 hour (AID 1224868); also: top concentration of the series differs between compounds; % is scaled to controls: 0 for no effect and ±100 for the full control effect; nearly all actives have a fitted effect of over 50% in size
- conditionContext: RealTime-Glo luminescence; series mostly up to 76.8 µM
Results filed as inconclusive are left out. Activity calls are given as the source filed them. The call rests on the fitted dose curve; in most records, active means well fitted cell-killing curve with a large enough effect in the repeat runs; inconclusive means weak or mixed curves, or effect the other way; inactive means flat fitted curve, though single readings scatter.
Just give me one of these, please: 1.0 for active, 0.0 for inactive

Prompt: Record lookup: outcome of this test for Cc1oc(=O)oc1COC(=O)[C@@H]1N2C(=O)[C@@H](NC(=O)[C@H](N)c3ccccc3)[C@H]2SC1(C)C ?
Response: 0.0

New cases:
Prompt: Tell me the recorded outcome of this test for CC(C)N=C=NC(C)C .
Response: 0.0

Prompt: Another compound to check: C=CC(=O)O
Response: 0.0

Prompt: And the next one, CC[C@H]1OC(=O)[C@H](C)[C@@H](O[C@H]2C[C@@](C)(OC)[C@@H](O)[C@H](C)O2)[C@H](C)[C@@H](O[C@@H]2O[C@H](C)C[C@H](N(C)C)[C@H]2O)[C@](C)(O)C[C@@H](C)C(=O)[C@H](C)[C@@H](O)[C@]1(C)O ?
Response: 0.0

Prompt: Moving on to CC(CCc1ccc(O)cc1)NCCc1ccc(O)c(O)c1 (stereo unspecified)
Response: 0.0

====

- testMethodNotes: A CellTox Green Cytotoxicity Assay to monitor cytotoxicity in HEK293 cells - 32 hour (AID 1224881); also: nearly all actives have a fitted effect of over 40% in size
- conditionContext: CellTox Green fluorescence; series mostly up to 76.8 µM
Inconclusive results are not listed. Active and inactive are the calls of the source. Calls come from the whole dose curve; as a rule, active = well fitted activation curve with a large enough effect in the repeat runs; inconclusive = weak or mixed curves; inactive = flat fitted curve, though single readings scatter.
Result category, one only: true (1) (active), false (0) (inactive)

Example entries begin here.
Prompt: Identify the outcome logged in this assay for the compound shown: COc1ccc(C)cc1
Response: false (0)

Prompt: What about this compound? CCC(=O)OCc1ccc(OC)cc1
Response: false (0)

Prompt: Follow-up item: CC(C)Cc1ccc(CC(=O)O)cc1
Response: true (1)

Prompt: How about this compound: COC(CC(C)CCCC(C)(C)O)OC (configuration not stated)
Response: false (0)

Continuing:
Prompt: What was the test verdict on O=C1[C@@H]2[C@H]3CC[C@H](C3)[C@@H]2C(=O)N1CCCCN1CCN(c2ncccn2)CC1 ?
Response: false (0)

Prompt: Now consider Nc1ccn([C@H]2CS[C@@H](CO)O2)c(=O)n1 and answer again.
Response: false (0)

Prompt: // next record CCC1CCC(CCC(=O)O)C1 (configuration not stated)
Response: false (0)

Prompt: Check [Cl][Nd]([Cl])[Cl] too.
Response: false (0)

Prompt: Then what about the compound CC(=O)NCCO ?
Response: false (0)

Prompt: What do you have for CSCC[C@H](NC(=O)[C@H](Cc1c[nH]c2ccccc12)NC(=O)CCNC(=O)OC(C)(C)C)C(=O)N[C@@H](CC(=O)O)C(=O)N[C@@H](Cc1ccccc1)C(N)=O ?
Response: false (0)

Prompt: Another: CC(C)(C)NCC(O)COc1cccc2c1C[C@H](O)[C@H](O)C2 (some centres not stated)
Response: false (0)

Prompt: Now give it for O=S(=O)(Cl)c1c(Cl)cccc1Cl too.
Response: false (0)

====

- testMethodNotes: qHTS assay to test for compound auto fluorescence at 460 nm (blue) in HEK293 cell free culture (AID 720681); also: % is scaled to controls: 0 for no effect and ±100 for the full control effect
- conditionContext: cell-free medium, autofluorescence 405/460 nm (blue); series mostly up to 91.3 µM
Calls of active or inactive are those of the source. Calls come from the whole dose curve; as a rule, active = well fitted curve in the direction sought with a large enough effect in the repeat runs; inconclusive = weak or mixed curves; inactive = flat fitted curve, though single readings scatter.
quantityName: fluorescence, % of fluorescent control

Below, 6 molecules whose answers are already recorded.
Prompt: Which fluorescence, % of fluorescent control value belongs to COc1ccc(C(=O)NCc2ccc(OCCN(C)C)cc2)cc1OC ?
Response: inactive

Prompt: And CC(=O)OCCC(C)CC(C)(C)C (centres undefined) ?
Response: inactive

Prompt: Okay, and C1CCCCC1 ?
Response: inactive

Prompt: For CS(=O)(=O)c1ccc([C@@H](C[C@H]2CCC(=O)C2)C(=O)Nc2cnccn2)cc1Cl then?
Response: inactive

Prompt: Same again, this time with CCCCCCCCCCCC(=O)OCC(O)CO (centres undefined)
Response: inactive

Prompt: Ok, now O=C1NC(=O)c2cccc3cccc1c23
Response: inactive

New cases:
Prompt: Given the molecule CC(C)N=C=NC(C)C , what is its reported fluorescence, % of fluorescent control?
Response: inactive

Prompt: Again, but for COc1ccc(CCN(C)CCCN2CCc3cc(OC)c(OC)cc3CC2=O)cc1OC
Response: inactive

Prompt: What do you get for CC(C)(O)c1coc(S(=O)(=O)NC(=O)Nc2c3c(cc4c2CCC4)CCC3)c1 ?
Response: inactive

Prompt: Can you handle CC(C)c1ccc(C#N)cc1 next?
Response: inactive

Prompt: Next molecule up: O=C(CCS)OCC(COC(=O)CCS)(COC(=O)CCS)COC(=O)CCS
Response: inactive

Prompt: Another molecule to look at: O=[N+]([O-])C1(Br)COCOC1
Response: inactive

Prompt: Proceed to O=C(c1ccccc1)c1ccc(O)cc1
Response: inactive

Prompt: Item: CSCC[C@H](NC(=O)[C@H](Cc1c[nH]c2ccccc12)NC(=O)CCNC(=O)OC(C)(C)C)C(=O)N[C@@H](CC(=O)O)C(=O)N[C@@H](Cc1ccccc1)C(N)=O
Response: inactive

Prompt: And for O=C(O)CCS ?
Response: inactive

Prompt: Ok, now O=c1[nH]c2cc(C(F)(F)F)c(N3CCOCC3)cc2n(CP(=O)(O)O)c1=O
Response: inactive

====

- testMethodNotes: qHTS assay to identify small molecule agonists of the progesterone receptor (PR) signaling pathway - cell viability counter screen (AID 1346799); also: % is scaled to controls: 0 for no effect and ±100 for the full control effect; nearly all actives have a fitted effect of over 45% in size
- conditionContext: PR-UAS-bla HEK293T viability, CellTiter-Glo luminescence, 16 h; series mostly up to 92.4 µM
Results filed as inconclusive are left out. Activity calls are given as the source filed them. The call rests on the fitted dose curve.
quantityName: activity change, negative = cytotoxicity

Some entries whose results are on file:
Prompt: Which value of activity change, negative = cytotoxicity has been reported for FC(F)(F)C(F)(F)C(F)(F)C(F)(F)CCI in the records?
Response: inactive

Prompt: Moving on to O=C(O)CCCc1c[nH]c2ccccc12
Response: inactive

Prompt: Same question for CCN(CC)CCNC(=O)c1cc(Cl)c(N)cc1OC please.
Response: inactive

Prompt: Another molecule: O=C1OC(=O)c2c(Br)c(Br)c(Br)c(Br)c21
Response: inactive

Prompt: What do you get for Cc1cccc(C)c1NC(=O)c1cc(S(N)(=O)=O)c(Cl)cc1O ?
Response: inactive

Prompt: Now this one: CC(CO)(CO)C(=O)O
Response: inactive

Prompt: Try the molecule O=C(O)CO
Response: inactive

Prompt: Continue with C/C(C=O)=C\c1ccccc1
Response: inactive

Next:
Prompt: Could you share which activity change, negative = cytotoxicity value was measured for Cc1ccc(N(CCO)CCO)cc1 ?
Response: inactive

Prompt: Lookup CC(O)Cn1cnc2c1c(=O)n(C)c(=O)n2C (stereo not given)
Response: inactive

====

- testMethodNotes: qHTS assay to identify small molecule antagonists of the estrogen receptor beta (ER-beta) signaling pathway - cell viability counter screen (AID 1259382); also: potency is read from the fitted curve at half-maximal effect; nearly all actives have a fitted effect of over 55% in size
- conditionContext: ER-beta-UAS-bla HEK293T viability, CellTiter-Glo luminescence, 16 h; series mostly up to 92.4 µM
Inconclusive results are not listed. Active and inactive are the calls of the source. Calls follow the shape of the dose curve; as a rule, active = well fitted cell-killing curve with a large enough effect in the repeat runs; inconclusive = weak or mixed curves; inactive = flat fitted curve, though single readings scatter.
quantityName: Potency

Examples with their reported Potency follow.
Prompt: Need Potency, item CO[C@@H]1[C@@H](OC)[C@H](C)[C@@](O)(CC(=O)O)O[C@H]1[C@H](C)[C@H]1O[C@@]2(CC[C@@](C)([C@H]3CC[C@@](C)([C@@H]4O[C@@H]([C@H]5O[C@](C)(O)[C@H](C)C[C@@H]5C)C[C@@H]4OC4C[C@H](OC)[C@@H](OC)[C@H](C)O4)O3)O2)C[C@H](O)[C@H]1C (some centres undefined)
Response: 2.66 µM (active)

Prompt: Now consider CNS(=O)(=O)c1cc(C(=O)N2CCC(CCN3C4CCC3CC(n3c(C)nc5ccccc53)C4)(c3cccc(F)c3)CC2)c(Cl)cc1F (centres undefined) and answer again.
Response: 7.7 µM (active)

Prompt: Then what about the molecule O[C@@H](CNC[C@H](O)[C@H]1CCc2cc(F)ccc2O1)[C@@H]1CCc2cc(F)ccc2O1 ?
Response: 21.1 µM (active)

Next molecule, Potency to be filled in.
Prompt: Bench note: what Potency did CN(C)CC/C=C1\c2ccccc2Sc2ccc(Cl)cc21 show?
Response: 18.8 µM (active)
